assay: Oral bioavailability in male Sprague-Dawley rat at 10 mg/kg measured up to 24 hrs by LC-MS/MS analysis; format: ADME, organism-based; details: in vivo
recorded.metric: bioavailability (%)
Reply numerically in %, unit not repeated.

QUERY: Give bioavailability for Cl.O=S(=O)(c1ccccc1)n1ncc2cc(-n3cc(CN[C@@H]4C[C@H]4c4ccc(F)c(F)c4)nn3)ccc21
RESULT: 6.01

###

target: Lysine-specific histone demethylase 1A (Homo sapiens, UniProt O60341); assay: Inhibition of human recombinant LSD1 (852 residues) incubated for 1 hr by HTRF method
# Condition met = IC50 below 10 nM (exclusive); Condition not met = IC50 at/above 10 nM

Here are 4 compounds together with their reported answers.
| substance.smiles | category |
| --- | --- |
| Cc1cc2[nH]ncc2cc1-n1cc(CN[C@@H]2C[C@H]2c2ccc(F)c(F)c2)nn1 | Condition not met |
| Fc1ccc([C@@H]2C[C@H]2NCc2cn(Cc3ccc4[nH]ncc4c3)nn2)cc1F | Condition not met |
| O=C(Cc1ccccc1)n1ncc2cc(-n3cc(CN[C@@H]4C[C@H]4c4ccc(F)c(F)c4)nn3)ccc21 | Condition not met |
| CS(=O)(=O)n1ncc2cc(-n3cc(CN[C@@H]4C[C@H]4c4ccc(F)c(F)c4)nn3)ccc21 | Condition not met |

QUERY: Quick check: IC50 of O=C(C1CC1)n1ncc2cc(-n3cc(CN[C@@H]4C[C@H]4c4ccc(F)c(F)c4)nn3)ccc21 under 10 nM?
RESULT: Condition not met

QUERY: For this compound, is IC50 lower than 10 nM? Cn1ncc2cc(-n3cc(CN[C@@H]4C[C@H]4c4ccc(F)c(F)c4)nn3)ccc21
RESULT: Condition met

QUERY: Does CCC(=O)n1ncc2cc(-n3cc(CN[C@@H]4C[C@H]4c4ccc(F)c(F)c4)nn3)ccc21 have IC50 strictly under 10 nM?
RESULT: Condition not met

QUERY: Is IC50 strictly under 10 nM for the entry Fc1ccc([C@@H]2C[C@H]2NCc2cn(-c3ccc4c(cnn4C4CCCC4)c3)nn2)cc1F ?
RESULT: Condition met

QUERY: For this compound, is IC50 lower than 10 nM? Fc1ccc([C@@H]2C[C@H]2NCc2cn(-c3ccc4c(cnn4Cc4ccccc4)c3)nn2)cc1F
RESULT: Condition met

###

assay: Metabolic stability in human liver microsomes assessed as half life measured up to 60 mins in presence of NADPH by LC-MS/MS analysis; format: ADME, Microsome
recorded.metric: half-life
Number first, unit second.

QUERY: Please report half-life for the following molecule: Cl.O=S(=O)(c1ccccc1)n1ncc2cc(-n3cc(CN[C@@H]4C[C@H]4c4ccc(F)c(F)c4)nn3)ccc21
RESULT: 11.6 min

###

experiment: Metabolic stability in rat liver microsomes assessed as half life measured up to 60 mins in presence of NADPH by LC-MS/MS analysis; assay type: ADME, Microsome
recorded.metric: half-life (min)
Give a bare numeral; the unit min is implied.

QUERY: Supply measured half-life of Cl.O=S(=O)(c1ccccc1)n1ncc2cc(-n3cc(CN[C@@H]4C[C@H]4c4ccc(F)c(F)c4)nn3)ccc21 in your reply.
RESULT: 3.94

###

assay: Clearance in male Sprague-Dawley rat at 1 mg/kg, iv measured up to 24 hrs by LC-MS/MS analysis; type: ADME, organism-based; settings: in vivo
recorded.metric: clearance (mL/min/kg)
Give the value, in units of mL/min/kg, as a plain number.

QUERY: Determine from records and report clearance for Cl.O=S(=O)(c1ccccc1)n1ncc2cc(-n3cc(CN[C@@H]4C[C@H]4c4ccc(F)c(F)c4)nn3)ccc21
RESULT: 35.3
